B1: CPEB3 Ribozyme (parent)
chain: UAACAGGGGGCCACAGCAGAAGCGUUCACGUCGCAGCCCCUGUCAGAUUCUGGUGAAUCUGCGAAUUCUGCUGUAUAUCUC

- Variants of: B1
- TEST DETAILS: self-cleavage, relative activity (ratio to wild type); higher = more cleavage; in vitro, sequencing

SEQ: UAACACGGGGCCACAGCAGAAGCGUUCACGUCGCAGCCCCUGUCAGAUUCUGGUGAAUCUGCGAGUUCUGCUGUAUAUCUC
self-cleavage: 0.46

SEQ: UAACAGGGGGCCACAGCAGAAGUGUUCACGUCGUAGCCCCUGUCAGAUUCUGGUGAAUCUGCGAAUUCUGCUGUAUAUCUC
self-cleavage: 0.36

SEQ: UAACAGGGGGCCACAGCAGAAGCGUUCACGUCGGAGCCCCUGUCAGAUUCUGGUGAAUCUGCGAAUUCUGUUGUAUAUCUC
self-cleavage: 0.52

SEQ: UAACAGGGGGCCACAGCAGAAGCGUUCACUUCGCAGCCCCUGUCAGAUUCUGGUGAAUCUGCGAAUUCUGCUGUACAUCUC
self-cleavage: 0.39

SEQ: UUACAGGGGGCCACAGCAGAAGCGUUCACGUCGCAGCCCCUGUCAGAUUCUGGUGAAUCUGCGAAUUCUGCAGUAUAUCUC
self-cleavage: 0.67

SEQ: UAACAGGGGGCCACAGCAGAAGCCUUCACGUCGCAGCCCCUGCCAGAUUCUGGUGAAUCUGCGAAUUCUGCUGUAUAUCUC
self-cleavage: 0.18

SEQ: UAACAGGGGGCCACAGCAGAAGCGUUCACGUCGCAGCCCCUGUGAGAUUCUGGUGAAUCUGCGAAUUCUGCCGUAUAUCUC
self-cleavage: 0.54

SEQ: UAACAGGGGGCCACAGCAGAAGCGUUCACGUCGCAGCCCCUGUCAGAUUCUGGUGAAUCUGCAAAUACUGCUGUAUAUCUC
self-cleavage: 0.31

SEQ: UAACAGGGGGCCACAGCAGAAGCGUCCACGUCGCAGCCCCUGUCAGAUUCUGGUGAAUCUGCGAAUUCUGCUGUAUAUGUC
self-cleavage: 0.59

SEQ: UAACAGGGGGCCACAGCAGAAGCGUUCACGUCGCAGCCCCUGUCAGAUUCUGGUGAAUCUGCGAAUUCUGCCGCAUAUCUC
self-cleavage: 1.22

SEQ: UAACAGGGGGCCACAGCAGAAGCGUUCACGUCGCAGCCCUUGCCAGAUUCUGGUGAAUCUGCGAAUUCUGCUGUAUAUCUC
self-cleavage: 0.39

SEQ: UAACGGGGGGCCACAGCAGAUGCGUUCACGUCGCAGCCCCUGUCAGAUUCUGGUGAAUCUGCGAAUUCUGCUGUAUAUCUC
self-cleavage: 0.33

SEQ: UAACAGGGGGCCACAGCAGAAGCGUUCGCGUCGCAGCCCUUGUCAGAUUCUGGUGAAUCUGCGAAUUCUGCUGUAUAUCUC
self-cleavage: 0.48

SEQ: UAACAGGGGGCCACAGCAGAAGCGUUCACGUCGCAGCCCCUGUCAGAUUCUGGUGAAUCUGAGAAUUCUGCCGUAUAUCUC
self-cleavage: 0.24

SEQ: UAGCAGGGGGCCACAGCAGAAGCGUUCACGUCGCAGCCCCUGUCAGAUUCUGGUGAAUCUGCGAAUUCUGCUGUAUCUCUC
self-cleavage: 1.03

SEQ: UAACAGGGGGCCACAGCAGACGCGUUCACGUCGCAGCCCCUGUCAGAUUCUGGUGAAUCUGCGAAUUCUGCUGUAUAUCUG
self-cleavage: 0.3

SEQ: UAACAGGGGUCCACAGCAGAAGCGUUCACGUCGCAGCCCCUGUCAGAUUCUGGUGAAUCUGCGAAUUCUGCUGUAUGUCUC
self-cleavage: 0.35

SEQ: UAACAGGAGGCCACAGCAGAAGCGUUCACGUCGCAGCCCCUGUCAGAUUCUGGUGAAUCUGCGAAUUCUGCUGUAUGUCUC
self-cleavage: 0.23

SEQ: UAACAGGGAGCCACAGCAGAAGCGUUCACGUCGCAGCCCCUGUCAGAUUCUGGUGAAACUGCGAAUUCUGCUGUAUAUCUC
self-cleavage: 0.07

SEQ: UAACAGGGCGCCACAGCAGAAGCGUUCACGUCGCAGCCCCUGUCAGAUUCUGGUGAAUCUGCGAAUUCUGCCGUAUAUCUC
self-cleavage: 0.37

SEQ: CAACAGGGGGCCACAGCAGAAGCGUUCACGUCGCAGCCCCUGUCAGAUUCUGGUGAAUCUGCGGAUUCUGCUGUAUAUCUC
self-cleavage: 0.8

SEQ: UAACAGGGGGCCACAGCAGAAGCGUUCACGUCGCAGCUCCUGUCAGAUUCUGGUGAAUCUGCGAAUUCCGCUGUAUAUCUC
self-cleavage: 0.38

Entry source: the RNAGym collection of RNA variant scans (doi:10.1093/nar/gkz1192)
